Reference for the values: a melting point compilation (Tetko et al.)

Readout Kind: melting point

Worked set:
{"columns": ["Molecule", "Measured Value"],
 "data": [
  ["Cc1ccc(O)c(C(=O)N2CCSCC2)c1", "155 to 157 °C"],
  ["Cc1sc(=O)[nH]c1-c1ccccc1", "171 to 173 °C"],
  ["NC(=O)N1CCN2C(=O)NC(=O)C2C1 (centres undefined)", "250 to 252 °C"]
]}

Would you mind listing melting point for each of the following molecules?
1. CC1(C)OC(=O)C(C(=O)C2CCCC2)C(=O)O1
2. CN(C)c1cccc(Cl)c1C=O

[reply]
1: 63 to 65 °C; 2: 26 to 28 °C

Would you mind listing melting point for each of the following molecules?
1. CCc1nc(N)sc1C(=O)O
2. O=C1CCC2(CC1)C(=O)Nc1ccccc12
3. CC1CCC(Cn2c(N)cc(=O)[nH]c2=O)CC1 (centres undefined)
4. C=CCNc1ncc(C(=O)O)s1
5. Cc1ccc(S(=O)(=O)Cc2ccc(C(=O)O)cc2)cc1

[reply]
1: 154 to 156 °C; 2: 198 to 200 °C; 3: 239 to 241 °C; 4: 169 to 171 °C; 5: 281 to 283 °C

###

Readout Kind: melting point

{"columns": ["Compound", "melting point"],
 "data": [
  ["NC(=O)c1cncc(Cl)n1", "166 to 168 °C"],
  ["CCCC1CCc2[nH]c(=O)sc2C1 (configuration not stated)", "119 to 121 °C"],
  ["O=C(O)c1ccc2c(c1)C(=O)N(C1CCS(=O)(=O)C1)C2=O (configuration not stated)", "239 to 241 °C"],
  ["Nc1ccc(-n2nccn2)nc1", "82 to 84 °C"],
  ["CC1CNc2ccccc2S1 (configuration not stated)", "41 to 43 °C"]
]}

Would you mind listing melting point for each of the following compounds?
1. COc1cc(CC(=O)O)ccc1C
2. CCN(CC)S(=O)(=O)c1ccc(OC(C)C)c(NC(=O)CCl)c1

[reply]
74 to 76 °C
223 to 226 °C

###

Answer each item with its documented melting point.

Worked set:
{"columns": ["Compound", "Readout Kind", "Measured Value"],
 "data": [
  ["Cc1ccc(N)cc1S(=O)(=O)N1CCOCC1", "melting point", "186 to 188 °C"],
  ["c1ccc(Cn2ccnc2)nc1", "melting point", "63 to 65 °C"],
  ["Cc1c(C(=O)O)cccc1S(=O)(=O)Cl", "melting point", "169 to 171 °C"],
  ["Cc1cc(N)nn1-c1cccc(Cl)c1", "melting point", "58 to 60 °C"]
]}

Would you mind listing melting point for each of the following compounds?
1. O=C(O)c1ncoc1-c1ccccc1Cl
2. COC(=O)c1cc(N)c(Br)cc1F
3. O=C(O)c1ccc(NS(=O)(=O)c2ccc(Br)s2)cc1
4. Nc1cc(S(=O)(=O)N2CCOCC2)ccc1O
5. CN(C1CCCCC1)S(=O)(=O)c1cccc(N)c1
6. CC(C)CSc1ccc([N+](=O)[O-])cc1C(=O)O

[reply]
["194 to 196 °C", "87 to 89 °C", "254 to 256 °C", "199 to 201 °C", "109 to 111 °C", "189 to 191 °C"]

Would you mind listing melting point for each of the following compounds?
1. O=C(O)CCn1cc[nH]c(=O)c1=O
2. ClCc1nc(-c2ccc3c(c2)OCO3)no1
3. COc1ccc2cc(CCl)c(Cl)nc2c1

[reply]
1: 239 to 241 °C; 2: 50 to 52 °C; 3: 133 to 135 °C
